# assayText: Metabolic stability in human liver microsomes
# Format: in vitro ADME
# testContext: human, liver microsomes, 1 μM, human liver microsomes 0.5 mg/mL, NADPH and UDPGA, 37° C.; read-out: In vitro t1/2
The following compounds are shown together with reported half-life at 1 μM values.
measuredMetric: half-life at 1 μM

- querySmiles: "[2H]c1cc(C)c(NC(=O)c2cnc(Nc3cc(N4CCC(O)CC4)nc(C)n3)s2)c(Cl)c1"
  result: "32 min"
- querySmiles: "Cc1nc(Nc2ncc(C(=O)Nc3c(C)cccc3Cl)s2)cc(N2CC[C@@H](O)C2)n1"
  result: "> 59 min"
- querySmiles: "[2H]c1cc(C)c(NC(=O)c2cnc(Nc3cc(N4CC[C@H](O)C4)nc(C)n3)s2)c(Cl)c1"
  result: "> 59 min"
- querySmiles: "Cc1nc(Nc2ncc(C(=O)Nc3c(C)cccc3Cl)s2)cc(N2CCC(O)CC2)n1"
  result: "25 min"

* * *

# assayText: Pharmacokinetics in Sprague-Dawley rats, 2-in-1 dosing
# Assay type: in vivo
# testContext: Sprague-Dawley, rat; PO 2.5 mg/kg, single dose, plasma (Table 2)

- compound: "[2H]c1cc(C)c(NC(=O)c2cnc(Nc3cc(N4CC[C@@H](O)C4)nc(C)n3)s2)c(Cl)c1 [Compound V]"
  Cmax [ng/mL]: 35
- compound: "[2H]c1cc(C)c(NC(=O)c2cnc(Nc3cc(N4CC[C@H](O)C4)nc(C)n3)s2)c(Cl)c1 [Compound IV]"
  Cmax [ng/mL]: 82
- compound: "[2H]c1cc(C)c(NC(=O)c2cnc(Nc3cc(N4CCN(CCO)CC4)nc(C)n3)s2)c(Cl)c1 [Compound III]"
  Cmax [ng/mL]: 9
- compound: "Cc1nc(Nc2ncc(C(=O)Nc3c(C)cccc3Cl)s2)cc(N2CCN(CCO)CC2)n1 [Dasatinib, reference compound]"
  Cmax [ng/mL]: 15
